Target: Rac GTPase-activating protein 1 (Homo sapiens)
Assay: blockers of MgcRacGAP-driven Rac1 GTP hydrolysis – biochemical, ADP Hunter fluorescence, primary and confirmatory, confirmation (AID 624330);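 note: fluorescence reports GDP produced by GAP-driven GTP hydrolysis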
Conditions: MgcRacGAP-stimulated Rac1 GTP hydrolysis, at 30 µM, stronger effect = higher value, GST-tagged Rac1 F28L mutant substrate
About 2,100 (0.62%) of roughly 340,000 compounds were called active. Only a sample is shown. Entries with a potency or affinity are not part of this list.
PARAMETER: inhibition (%)
Give the value, in units of %, as a plain number.

Use these answered entries as a reference point.
                                   compound   parameter  measured_value
0  COc1ccc2nc(SCC(=O)NC3CCCCC3C)[nH]c2c1 (stereo unspecified)  inhibition            6.19
1  CCN1/C(=C/c2ccc3cc(C)ccc3[n+]2CC)Sc2ccc3sccc3c21  inhibition             6.5
2                      c1ccc2nc3ccccc3nc2c1  inhibition            2.14
3          Clc1ccc(CN2CCC(Cc3ccccc3)CC2)cc1  inhibition            14.2

The reported value for "O=S(=O)(Nc1ccc(N2CCOCC2)cc1)c1ccc(F)cc1" in terms of inhibition is 6.7

The reported value for "CCN1/C(=C\c2ccc3cc(C)ccc3[n+]2CC)Sc2cc(C)c(C)cc21" in terms of inhibition is 5.51

The reported value for "C=CC[n+]1c(/C=C2\C=Cc3cc(C)ccc3N2CC)ccc2ccccc21" in terms of inhibition is 17.6

The reported value for "CN(C)CCOC(=O)CC12CC3CC(C1)CC(CC(=O)OCCN(C)C)(C3)C2" in terms of inhibition is 5.06

The reported value for "Cc1ccc(C2=NOC(=O)/C2=C\C=C\c2ccccc2)cc1" in terms of inhibition is 6.67

The reported value for "COc1cc2c(cc1OC)C1=C(C#N)CC/C(=N\S(=O)(=O)c3cccc(Cl)c3)N1CC2" in terms of inhibition is 4.99

The reported value for "CCN1/C(=C/c2ccc3cc(C)cc(C)c3[n+]2CC)Sc2cc(C)ccc21" in terms of inhibition is 24.3

###

Biological target: Rac GTPase-activating protein 1 (Homo sapiens) (UniProt Q9H0H5)
Sequence (Q9H0H5 whole entry, looked up): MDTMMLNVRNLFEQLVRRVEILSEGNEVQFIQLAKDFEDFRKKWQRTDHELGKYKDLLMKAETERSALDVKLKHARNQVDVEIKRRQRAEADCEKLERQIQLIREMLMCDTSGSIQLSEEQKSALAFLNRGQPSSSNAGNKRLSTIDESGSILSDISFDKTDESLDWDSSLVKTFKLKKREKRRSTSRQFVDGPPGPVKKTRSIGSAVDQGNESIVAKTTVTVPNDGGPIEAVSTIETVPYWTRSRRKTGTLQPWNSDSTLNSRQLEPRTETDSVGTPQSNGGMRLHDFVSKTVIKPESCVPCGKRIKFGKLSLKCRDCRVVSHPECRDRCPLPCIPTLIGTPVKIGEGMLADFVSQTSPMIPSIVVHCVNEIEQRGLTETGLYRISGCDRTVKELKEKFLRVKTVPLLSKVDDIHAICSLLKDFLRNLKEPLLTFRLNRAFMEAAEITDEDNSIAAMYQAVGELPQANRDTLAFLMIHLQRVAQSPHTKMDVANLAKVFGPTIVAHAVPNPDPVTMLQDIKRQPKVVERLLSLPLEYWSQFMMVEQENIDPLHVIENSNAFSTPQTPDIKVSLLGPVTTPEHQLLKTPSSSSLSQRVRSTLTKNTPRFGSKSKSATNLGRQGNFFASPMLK
Experiment: blockers of MgcRacGAP-driven Rac1 GTP hydrolysis – biochemical, ADP Hunter fluorescence, primary and confirmatory, confirmation (AID 624330);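 note: fluorescence reports GDP produced by GAP-driven GTP hydrolysis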
Conditions: MgcRacGAP-stimulated Rac1 GTP hydrolysis, at 30 µM, stronger effect = higher value, GST-tagged Rac1 F28L mutant substrate
Out of some 340,000 compounds screened, about 2,100 (0.62%) were called active. A selection follows. Potency and affinity values are given separately.
PARAMETER: inhibition

                                   compound   parameter     measured_value
0       O=C(N/N=C/c1cccc(O)c1)c1csc2ccccc12  inhibition  -6.14% (inactive)
1  O=S(=O)(c1ccc(Cl)cc1)N1CCN(Cc2cccnc2)CC1  inhibition   2.76% (inactive)
2  COc1ccc([C@H]2CN(c3ccccc3)C(=O)[C@@H]2CC(=O)Nc2ccccc2)cc1  inhibition   9.26% (inactive)
3  C/C(=C/c1oc2ccc(O)cc2c1[N+](=O)[O-])N(C)C  inhibition   14.9% (inactive)
4      CCc1sc(C(=O)Nc2ccc(N3CCOCC3)cc2)cc1C  inhibition   9.93% (inactive)
5          COC(=O)c1ccc(Sc2ccc(C)cc2)c(N)c1  inhibition   9.92% (inactive)
6               CC(/C=N/n1cnnc1)=C\c1ccccc1  inhibition   3.71% (inactive)
7  CC(=O)C1C(c2ccc([N+](=O)[O-])cc2)c2c(noc2C)CC1(C)O (stereo not drawn)  inhibition  -3.68% (inactive)
8  Cc1ccc2cc(/C=N/NC(=O)c3ccc(F)cc3)c(Cl)nc2c1  inhibition   5.25% (inactive)
9      O=C(CNC(=O)c1ccco1)NCc1ccc2c(c1)OCO2  inhibition   3.26% (inactive)

Proceed to the following item.
The reported value for COC(=O)CCCCC(=O)C1C(=O)CC(C)(C)C(C(=O)OC)C1=O (stereo not drawn) in terms of inhibition is 2.31% (inactive)

###

inhibition values by entry
Molecular target: Rac GTPase-activating protein 1 (Homo sapiens) (UniProt Q9H0H5)
Test: blockers of MgcRacGAP-driven Rac1 GTP hydrolysis – biochemical, ADP Hunter fluorescence, primary and confirmatory, confirmation (AID 624330);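 note: fluorescence reports GDP produced by GAP-driven GTP hydrolysis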
Settings: MgcRacGAP-stimulated Rac1 GTP hydrolysis, at 30 µM, stronger effect = higher value, GST-tagged Rac1 F28L mutant substrate
Out of some 340,000 compounds screened, about 2,100 (0.62%) were called active. A selection follows. Potency and affinity values are given separately.
Give the value, in units of %, as a plain number.

>>> print(df.to_string())
                                   molecule   parameter  readout_unit  measured_value
0              CSc1ccc(/C=N/N2CCN(C)CC2)cc1  inhibition             %            11.3
1  COc1ccc(Cl)cc1NC(=O)CN(C)C1CCS(=O)(=O)C1 (stereo not drawn)  inhibition             %            6.99
2  CCN(CC)CCCNC(=O)C1CCCN(c2nnc(N3CCCC3=O)s2)C1 (stereo not drawn)  inhibition             %            8.15
3  CCN(CC(=O)Nc1cc(C)c(Cl)cc1OC)CC(=O)NC1CCS(=O)(=O)C1 (stereo not drawn)  inhibition             %             8.4
4  O=C(O)C1OC2OC3(CCCCC3)OC2C2OC3(CCCCC3)OC12 (stereo not drawn)  inhibition             %            -5.5

The reported value for CN(C(=O)c1ccc(NC(=O)Cc2ccc(NC(=O)C3CCCN(C(=O)C4CCCCC4)C3)cc2)cc1)C1CCCC1 (stereo not drawn) in terms of inhibition is 9

The reported value for "COc1cc(Br)c(CN2CCCN(C)CC2)cc1OC" in terms of inhibition is 5.08

The reported value for "COc1cccc(CNc2ccc3c(c2)nc(C)n3C)c1OC" in terms of inhibition is 30.5

The reported value for "COc1ccc(N(C(C)=O)S(=O)(=O)c2cc(OC)ccc2OC)cc1" in terms of inhibition is 12.7

The reported value for "Cc1onc(-c2ccccc2Cl)c1C(=O)NCCCN1CCOCC1" in terms of inhibition is 12

The reported value for "COc1cccc(CNc2ccc3c(c2)ncn3C(C)C)c1OC" in terms of inhibition is 24.5

The reported value for "COc1ccc(CN2CCSCC2)c(OC)c1C" in terms of inhibition is 28.9

The reported value for "CC(C)(C)c1ccc(-c2nc(C=O)c3ccccn23)cc1" in terms of inhibition is -4.54

The reported value for "CN1CCN(/N=C/c2ccc(-c3ccccc3)cc2)CC1" in terms of inhibition is 13.1

The reported value for "COc1ccc(CN2CCCCCC2)c(C)c1C" in terms of inhibition is 11.4

The reported value for "C[C@H](CO)N1C[C@H](C)[C@@H](CN(C)S(=O)(=O)c2cccs2)Oc2ccc(NC(=O)NC3CCCCC3)cc2C1=O" in terms of inhibition is 3.35

The reported value for Cc1ccccc1N(C(=O)c1csnn1)C(C(=O)NC1CCCCC1)c1ccncc1 (stereo not drawn) in terms of inhibition is -1.41

The reported value for "CCOc1ccc(NS(=O)(=O)c2ccc(N)cc2)cc1" in terms of inhibition is 1.38

###

Target: Rac GTPase-activating protein 1 (Homo sapiens)
Test: blockers of MgcRacGAP-driven Rac1 GTP hydrolysis – biochemical, ADP Hunter fluorescence, primary and confirmatory, confirmation (AID 624330);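 note: fluorescence reports GDP produced by GAP-driven GTP hydrolysis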
Details: MgcRacGAP-stimulated Rac1 GTP hydrolysis, at 30 µM, stronger effect = higher value, GST-tagged Rac1 F28L mutant substrate
In all, about 340,000 compounds went through this assay and about 2,100 (0.62%) were called active. Only a sample is shown. Measured potencies and affinities stand elsewhere.
PARAMETER: inhibition (%)
Give the value, in units of %, as a plain number.

Use these answered entries as a reference point.
COMPOUND	READOUT_UNIT	MEASURED_VALUE
Cc1ccc(S(=O)(=O)NCCC(=O)N2CCN(Cc3ccccc3)CC2)cc1	%	-1.47
COc1cc(/C=C2\SC(N)=NC2=O)cc(Br)c1O	%	29.2
COc1cccc(OC)c1C(=O)N1CCN(Cc2ccncc2)CC1	%	17.3

The reported value for "COc1ccc(Br)cc1/C=C/C(=O)NC(=S)Nc1ccc(Cl)c(C(=O)O)c1" in terms of inhibition is 6.62
